Recorded values, source patent US5708000A.

Tested on: duck hepatitis B virus (DHBV)
test-summary: Anti-HBV test: effect on the replication of the duck hepatitis B virus (DHBV) in infected duck hepatocytes (viral DNA)
Format: cell-based
assay-setup: Hepatocyte, 240 h, duck hepatocytes infected by DHBV, viral DNA in supernatant, dot blot, 10 days of culture, read-out: IC50, inhibition of the replication of DHBV virus
observable: IC50 (nM)
Give bare numbers, in nM.

CN1C=C(C(=O)Nc2ccn([C@@H]3CS[C@H](CO)O3)c(=O)n2)Cc2ccccc21 (relative stereo) [Compound 10]    2000
O=C(Nc1ccn([C@@H]2CS[C@H](CO)O2)c(=O)n1)c1cnc2ccccc2c1 (relative stereo) [Compound 8]    2000

Take each entry in turn and give its IC50.
1. O=C(Nc1ccn([C@@H]2CS[C@H](CO)O2)c(=O)n1)c1cccnc1 (relative stereo) [Compound 2]
2. Nc1ccn([C@H]2CS[C@@H](CO)O2)c(=O)n1 [BCH-189, 2',3'-dideoxy 3'-thiacytidine, reference compound]

1: 2000; 2: 1000

---

Tested on: duck hepatitis B virus (DHBV)
test-summary: Anti-HBV test: effect on the replication of the duck hepatitis B virus (DHBV) in infected duck hepatocytes (viral DNA)
Assay type: cell-based
assay-setup: Hepatocyte, 240 h, read-out: IC50, inhibition of the replication of DHBV virus
observable: IC50 (nM)
Numbers only, in nM.

In one line, give reported IC50 of the entry C[n+]1cc(C(=O)Nc2ccn([C@@H]3CS[C@H](CO)O3)c(=O)n2)cc2ccccc21 (relative stereo) .
2000

---

Assign pIC50 to each entry below.
Tested on: HIV-1 virus (BRU) in MT4 cells
test-summary: Anti-HIV test: inhibition of HIV-1 replication (syncitia formation) in infected MT4 cells
Type: cell-based
assay-setup: Human immunodeficiency virus 1; BRU HIV-1, MT4 cells, syncitia count, day D7 after infection; read-out: IC50 (concentration giving a 50% inhibition of the replication of HIV in the infected MT4 cells)
Numbers only, as −log10 of the molar value.

Nc1ccn([C@H]2CS[C@@H](CO)O2)c(=O)n1 [BCH-189, 2',3'-dideoxy 3'-thiacytidine, reference compound]    6.00

For the next question, use this molecule.
In one line, give reported pIC50 of the entry O=C(Nc1ccn([C@@H]2CS[C@H](CO)O2)c(=O)n1)c1cnc2ccccc2c1 (relative stereo) [Compound 8] .
5.00

---

System: HIV-1 virus (BRU) in MT4 cells
test-summary: Anti-HIV test: inhibition of HIV-1 replication (syncitia formation) in infected MT4 cells
Type: cell-based
assay-setup: Human immunodeficiency virus 1; BRU HIV-1, MT4 cells, syncitia count, day D7 after infection; read-out: IC50 (concentration giving a 50% inhibition of the replication of HIV in the infected MT4 cells)
pIC50: −log10 of the molar value.
observable: pIC50

Here is how some compounds turned out for pIC50.
O=C(Nc1ccn([C@@H]2CS[C@H](CO)O2)c(=O)n1)c1cccnc1 (relative stereo)    6.00 to 7.00
CN1C=C(C(=O)Nc2ccn([C@@H]3CS[C@H](CO)O3)c(=O)n2)Cc2ccccc21 (relative stereo)    5.00 to 6.00

In one line, give reported pIC50 of the entry O=C(Nc1ccn([C@@H]2CS[C@H](CO)O2)c(=O)n1)c1cccnc1Nc1cccc(C(F)(F)F)c1 (relative stereo) .
> 4.00
